// data source = the supplement of paper PMC10567573

Recorded protein stability index values for a group of variants are listed next.
B1: BTBD1 (parent)
chain: FVLGKGRGAAAAGGPQRIPAHRFV

# Variants of: B1
# procedure details: protein stability index of a GFP-peptide fusion (GPS, HEK-293T) (PSI 1-6); higher = more stable;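 note: lentivirally expressed fusions sorted by FACS into six bins by GFP to DsRed ratio, PSI derived from sequencing read proportions per bin multiplied by bin number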
# stated conditions: c terminus: a fixed tail appended

construct sequence: FVLGKGRGAAAAGGPQRIPAHRFL [V24L]
protein stability index: 1.73
--
construct sequence: FVLGKGRGAAAAGGPQLIPAHRFV [R17L]
protein stability index: 2.01
--
construct sequence: FVLGKGRTAAAAGGPQRIPAHRFV [G8T]
protein stability index: 2
--
construct sequence: FVLNKGRGAAAAGGPQRIPAHRFV [G4N]
protein stability index: 2.36
--
construct sequence: FVLGKGRGAAALGGPQRIPAHRFV [A12L]
protein stability index: 1.38
--
construct sequence: FVLGKGRGAAAAGGPQRIPAHRFD [V24D]
protein stability index: 2.27
--
construct sequence: FVLGKGRGAAAAGGPQRIPAHDFV [R22D]
protein stability index: 2.35
--
construct sequence: FVLGKGRGAAAAGGPQRFPAHRFV [I18F]
protein stability index: 1.93
--
construct sequence: FVLGKGRGAAFAGGPQRIPAHRFV [A11F]
protein stability index: 1.04
--
construct sequence: FVLGKGRGAAAAGGPNRIPAHRFV [Q16N]
protein stability index: 2.54
--
construct sequence: FVLGKGRGAAAAEGPQRIPAHRFV [G13E]
protein stability index: 2.31
